Values from ChEMBL document CHEMBL1201862

# AC50 measurements, system: Cytochrome P450 3A4 (Homo sapiens);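 note: CYP3A4 tested as one member of a cytochrome P450 panel screen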
# Sequence (P08684 whole entry): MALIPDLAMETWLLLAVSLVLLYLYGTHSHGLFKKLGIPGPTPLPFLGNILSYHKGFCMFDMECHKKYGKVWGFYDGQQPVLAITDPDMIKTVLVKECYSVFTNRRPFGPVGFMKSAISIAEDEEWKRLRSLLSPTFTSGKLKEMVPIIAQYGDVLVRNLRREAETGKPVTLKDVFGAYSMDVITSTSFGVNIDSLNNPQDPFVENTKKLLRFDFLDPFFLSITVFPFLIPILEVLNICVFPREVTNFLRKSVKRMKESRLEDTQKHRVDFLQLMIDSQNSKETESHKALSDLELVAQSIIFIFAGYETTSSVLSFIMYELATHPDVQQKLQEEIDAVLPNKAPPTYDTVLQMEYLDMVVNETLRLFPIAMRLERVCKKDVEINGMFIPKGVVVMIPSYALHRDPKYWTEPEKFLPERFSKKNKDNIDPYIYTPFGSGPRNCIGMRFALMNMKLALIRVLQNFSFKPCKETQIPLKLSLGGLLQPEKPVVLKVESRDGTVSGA

{"compound": "Cc1cc(O)c(-c2cc(O)c(C)cc2O)cc1O", "AC50": "1.58 µM (inconclusive)"}
{"compound": "COc1ccc(C(=O)N2CCC[C@@]3(CCN(c4ccccc4)C3)C2)cc1", "AC50": "7.94 µM (inconclusive)"}
{"compound": "CCCC[C@@H]1C[C@H]1C(NC(=O)c1ccccc1)c1ccc(-c2ccccc2)cc1 (some centres undefined)", "AC50": "7.94 µM (inconclusive)"}
{"compound": "FC(F)(F)c1cc(CN2CCC3(CCNCC3)CC2)cc(C(F)(F)F)c1", "AC50": "31.6 µM (inconclusive)"}
{"compound": "CCC/C=C(\\CCC)C(NS(=O)(=O)c1ccc(C(F)(F)F)cc1)c1ccc(C(=O)OC)cc1 (centres undefined)", "AC50": "1 µM (inconclusive)"}
{"compound": "CCc1ccc(Nc2ncccc2C#N)cc1", "AC50": "28.2 µM (inconclusive)"}
{"compound": "COc1ccc(-c2nc3cnc(Nc4cccc(OC)c4)nc3n(C[C@H]3CCCO3)c2=O)cc1", "AC50": "5.01 µM (inconclusive)"}
{"compound": "O=S(=O)(c1ccccc1)N1CCC2(CCN(c3ccccc3)CC2)CC1", "AC50": "2.51 µM (inconclusive)"}
{"compound": "COc1ccc2nc(NC(C)=O)sc2c1", "AC50": "28.2 µM (inconclusive)"}

----------
- measurement-target: UniProtKB P05186
- Sequence (P05186 whole entry): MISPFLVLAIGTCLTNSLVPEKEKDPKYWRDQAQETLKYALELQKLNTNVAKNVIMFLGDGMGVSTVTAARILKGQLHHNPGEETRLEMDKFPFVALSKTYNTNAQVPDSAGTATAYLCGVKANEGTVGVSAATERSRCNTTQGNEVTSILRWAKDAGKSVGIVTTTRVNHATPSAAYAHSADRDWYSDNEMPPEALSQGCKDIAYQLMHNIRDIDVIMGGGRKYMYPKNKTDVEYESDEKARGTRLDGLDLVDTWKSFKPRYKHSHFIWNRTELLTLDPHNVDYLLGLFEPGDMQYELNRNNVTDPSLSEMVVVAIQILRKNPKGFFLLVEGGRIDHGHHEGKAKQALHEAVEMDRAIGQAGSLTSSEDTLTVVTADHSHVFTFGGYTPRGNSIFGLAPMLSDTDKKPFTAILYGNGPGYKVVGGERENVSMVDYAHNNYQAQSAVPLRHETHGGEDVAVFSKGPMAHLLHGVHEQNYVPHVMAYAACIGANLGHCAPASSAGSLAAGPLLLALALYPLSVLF
- measurement-protocol: potency against alkaline phosphatase TNAP – biochemical, luminescent, dose response, SAR follow-up (AID 1056)
Calls of active or inactive are those of the source.
Outcome codes: active, inactive

{"mol": "O=C(c1cc(-c2cc(F)c(Cl)cc2Cl)n[nH]1)N1CCOCC1", "label": "active"}
{"mol": "Cc1cc(C)c(S(=O)(=O)Nc2cnc3ccccc3c2)c(C)c1", "label": "inactive"}
{"mol": "Cc1cc(C(=O)NCCc2ccc(O)c(O)c2)c(C)o1", "label": "inactive"}
{"mol": "CCCCN1C(=O)/C(=N\\Nc2ccccc2OC)c2ccccc21", "label": "active"}
{"mol": "O=C(O)c1cccc(-n2sc3ccccc3c2=O)c1", "label": "inactive"}

----------
- measurement-target: FAD-linked sulfhydryl oxidase ALR (Homo sapiens, UniProt P55789)
- Sequence (P55789 whole entry): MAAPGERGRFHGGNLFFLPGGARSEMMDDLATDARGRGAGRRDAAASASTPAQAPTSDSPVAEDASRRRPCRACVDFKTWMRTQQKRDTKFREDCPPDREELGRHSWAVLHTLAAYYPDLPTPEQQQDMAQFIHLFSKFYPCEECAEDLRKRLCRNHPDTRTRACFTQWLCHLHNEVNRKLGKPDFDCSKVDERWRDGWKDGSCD
- measurement-protocol: ALR-catalysed DTT oxidation blockers – biochemical, H2O2 detection, luminescence, cherry-pick, dose response (AID 493248)
Activity calls are given as the source filed them.

{"compound": "COc1cc(/C(C)=N/NC(=O)CN2CCN(S(=O)(=O)c3ccc(C)cc3)CC2)ccc1O", "measurement-target": "FAD-linked sulfhydryl oxidase ALR (Homo sapiens, UniProt P55789)", "AC50": "3.76 µM (active)"}
{"compound": "COc1ccc(CNc2nc3ccccc3n2C(C)C)c(O)c1", "measurement-target": "FAD-linked sulfhydryl oxidase ALR (Homo sapiens, UniProt P55789)", "AC50": "0.146 µM (active)"}
{"compound": "Cn1cccc1CC(=O)N/N=C/c1ccc([N+](=O)[O-])cc1", "measurement-target": "FAD-linked sulfhydryl oxidase ALR (Homo sapiens, UniProt P55789)", "AC50": "6.99 µM (active)"}
{"compound": "CCN(C(=O)CN1CCN(c2ccccc2O)CC1)c1c(N)n(Cc2ccccc2)c(=O)[nH]c1=O", "measurement-target": "FAD-linked sulfhydryl oxidase ALR (Homo sapiens, UniProt P55789)", "AC50": "16.2 µM (active)"}
{"compound": "Cn1c(S)nnc1CSCc1ccc(Cl)c(Cl)c1", "measurement-target": "FAD-linked sulfhydryl oxidase ALR (Homo sapiens, UniProt P55789)", "AC50": "3.93 µM (active)"}
{"compound": "O=C(Nc1cccc([N+](=O)[O-])c1)c1[nH]ncc1Cl", "measurement-target": "FAD-linked sulfhydryl oxidase ALR (Homo sapiens, UniProt P55789)", "AC50": "0.847 µM (active)"}
{"compound": "Cc1cc(C(=O)NNc2ccc(F)cc2)no1", "measurement-target": "FAD-linked sulfhydryl oxidase ALR (Homo sapiens, UniProt P55789)", "AC50": "10.5 µM (active)"}
{"compound": "COc1cc(OC)c2ccc(=O)oc2c1C(CC(=O)N1CCCC1)c1ccc(N(C)C)cc1 (stereo not given)", "measurement-target": "FAD-linked sulfhydryl oxidase ALR (Homo sapiens, UniProt P55789)", "AC50": "2.89 µM (active)"}
{"compound": "COc1ccc(N2CCN(C(=O)NC3CCCCC3)CC2)cc1", "measurement-target": "FAD-linked sulfhydryl oxidase ALR (Homo sapiens, UniProt P55789)", "AC50": "5.03 µM (active)"}
{"compound": "COc1ccccc1C(=O)Nc1ccc(N2CCCCC2)cc1", "measurement-target": "FAD-linked sulfhydryl oxidase ALR (Homo sapiens, UniProt P55789)", "AC50": "13.4 µM (active)"}
